Target: T1, Human Siglec-15, His Tag (human Siglec-15 full-length extracellular domain linked with His tag) (human, UniProt Q6ZMC9 20-263)
T1 construct: Bought from ACROBiosystems; also called Siglec-15 protein; SG5-H52H3
T1 sequence: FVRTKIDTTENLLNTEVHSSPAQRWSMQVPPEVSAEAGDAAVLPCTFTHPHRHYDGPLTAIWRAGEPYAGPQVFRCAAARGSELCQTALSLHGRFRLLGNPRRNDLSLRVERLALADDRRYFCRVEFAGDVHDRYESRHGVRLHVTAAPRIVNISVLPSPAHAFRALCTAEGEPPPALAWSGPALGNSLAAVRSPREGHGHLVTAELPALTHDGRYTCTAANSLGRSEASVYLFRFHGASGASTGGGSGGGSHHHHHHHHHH
Experiment: SPR Biacore, antibody captured by anti-human Fc on CM5, Siglec-15 protein as analyte
pKd: −log10 of the molar value.
Measured pKd, listed per entry for reference.
Property Measured: pKd

Binder	Property Measured	Readout Value
21F6C6-hH2L4V (antibody, IgG1, V domains shown, Humanized; hIgG1, Kappa) VH: EVQLVESGGGLVKPGGSLRLSCAASGFTFSSYAMSWVRQAPGKGLEWVATISSGGSLIYYADSVTGRFTISRDNAKNTLYLQMNSLRAEDTAVYYCVRHGYYYGDSTLYYAMDYWGQGTTVTVSS VL: DIQMTQSPSSLSASVGDRVTITCRASQSVDYEGDSYMNWYQQKPGKAPKLLIYAASNLQSGVPSRFSGSGSGTDFTLTISSLQPEDFATYYCQQSNEAPLTFGQGTKLEIK	pKd	9.94
21F6C6-hH2L4 (antibody, IgG1, V domains shown, Humanized; hIgG1, Kappa) VH: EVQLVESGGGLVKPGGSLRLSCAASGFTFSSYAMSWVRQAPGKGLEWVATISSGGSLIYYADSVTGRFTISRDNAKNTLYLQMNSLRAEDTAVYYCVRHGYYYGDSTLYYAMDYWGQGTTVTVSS VL: DIQMTQSPSSLSASVGDRVTITCRASQSVDYDGDSYMNWYQQKPGKAPKLLIYAASNLQSGVPSRFSGSGSGTDFTLTISSLQPEDFATYYCQQSNEAPLTFGQGTKLEIK	pKd	10.07
124B11F6-hH2L2 (antibody, IgG1, V domains shown, Humanized; hIgG1, Lambda) VH: QVQLVQSGAEVKKPGASVKVSCKASVFNIKDYYMHWVRQAPGQGLEWIGRIDPEDDKTKYAPKFQGRVTITADTSTSTAYLELSSLRSEDTAVYYCVRGWLGYIMDFWGQGTTVTVSS VL: QLVLTQSPSASASLGASVKLTCTLSSQHSTYTIDWYQQQPEKGPRYVMELKEDGSHSTGDGIPDRFSGSSSGAERYLTISSLQSEDEADYICGVGATIKEQFVYVFGGGTKVTVL	pKd	9.69
